Cited source for all entries: patent US20250084039A1

Tested on: MOLM14
ASSAY NAME: IC50 determination (proliferation assay, CellTiter-Blue)
Assay type: cell-based
CONDITIONS: Homo sapiens, MOLM-14
I'd appreciate it if you could supply IC50 values for the items below.
Your answer is read as nM, so omit the unit and give the number.

Form field IC50, entry Cc1ccc(C(=O)Nc2ccc(CN3CCN(C)CC3)c(C(F)(F)F)c2)cc1C#Cc1c(N)ncc2ccc(Cl)cc12 [HSN286] : 0.7

Form field IC50, entry Cc1ccc(C(=O)Nc2ccc(CN3CCN(C)CC3)c(C(F)(F)F)c2)cc1C#Cc1c(N)ncc2ccccc12 [HSN352] : 3.01

Form field IC50, entry Cc1ccc(C(=O)Nc2ccc(CN3CCN(C)CC3)c(C(F)(F)F)c2)cc1C#Cc1cnc(N)c2ncccc12 [HSN356] : 0.62

Form field IC50, entry Cc1ccc(C(=O)Nc2ccc(CN3CCN(C)CC3)c(C(F)(F)F)c2)cc1C#Cc1c(N)ncc2c(Cl)cccc12 [HSN353] : 1.97

Form field IC50, entry COc1cc2nc(N)nc(C#Cc3cc(C(=O)Nc4ccc(CN5CCN(C)CC5)c(C(F)(F)F)c4)ccc3C)c2cc1OC [HSN325] : 456

Form field IC50, entry Cc1ccc(C(=O)Nc2ccc(CN3CCN(C)CC3)c(C(F)(F)F)c2)cc1C#Cc1cc(N)nc2ccccc12 [HSN285] : 415

Form field IC50, entry CCN(CC)CCNC(=O)c1ccc(C)c(C#Cc2c(N)ncc3ccc(Cl)cc23)c1 [HSN247] : 129

Form field IC50, entry Cc1ccc(C(=O)NCCN2CCCCC2)cc1C#Cc1c(N)ncc2ccc(Cl)cc12 [HSN248] : 180

Form field IC50, entry Cc1ccc(C(=O)Nc2ccc(CN3CCN(C)CC3)c(C(F)(F)F)c2)cc1C#Cc1cnc(N)c2ccccc12 [HSN334] : 1.61

---

System: HeLa
ASSAY NAME: Proliferation inhibition at single concentration (CellTiter-Blue)
Format: cell-based
CONDITIONS: 1 μM compound
ASSAY METRIC: Percent inhibition of proliferation HeLa

Form field Percent inhibition of proliferation HeLa, entry "Nc1ncc2ccc(Cl)cc2c1C#Cc1ccc(C(=O)NCCCN2CCCC2)cc1" : 38%

Form field Percent inhibition of proliferation HeLa, entry "Nc1ncc2ccc(Cl)cc2c1C#Cc1ccc(C(=O)NCCN2CCCCC2)cc1" : 20%

Form field Percent inhibition of proliferation HeLa, entry "Cc1ccc(C(=O)NCc2ccc(OCCN(C)C)cc2)cc1C#Cc1c(N)ncc2ccc(Cl)cc12" : 100%

Form field Percent inhibition of proliferation HeLa, entry "Nc1ncc2ccc(Cl)cc2c1C#Cc1ccc(C(=O)NCCCN2CCOCC2)cc1" : 20%

Form field Percent inhibition of proliferation HeLa, entry NCC(O)CNC(=O)c1ccc(C#Cc2c(N)ncc3ccc(Cl)cc23)cc1 (centres unmarked) : 1%

---

Test system: HeLa
ASSAY NAME: Proliferation inhibition at single concentration (CellTiter-Blue)
Format: cell-based
CONDITIONS: 1 μM compound
ASSAY METRIC: Percent inhibition of proliferation HeLa

Form field Percent inhibition of proliferation HeLa, entry Nc1ncc2ccc(Cl)cc2c1C#Cc1ccc(C(=O)N2CCC(N3CCCCC3)CC2)cc1 [HSN135] : 0%

Form field Percent inhibition of proliferation HeLa, entry Nc1ncc2ccc(Cl)cc2c1C#Cc1ccc(C(=O)NCC(O)CN2CCCC2)cc1 (stereo not drawn) [HSM1750] : 11%

Form field Percent inhibition of proliferation HeLa, entry COCCCNC(=O)c1ccc(C#Cc2c(N)ncc3ccc(Cl)cc23)cc1 [HSM1692] : 0%

Form field Percent inhibition of proliferation HeLa, entry CCN(CC)CC(O)CNC(=O)c1ccc(C#Cc2c(N)ncc3ccc(Cl)cc23)cc1 (stereo not drawn) [HSN184] : 51%

Form field Percent inhibition of proliferation HeLa, entry CN(C)CCNC(=O)c1ccc(C#Cc2c(N)ncc3ccc(Cl)cc23)cc1 [HSM1669] : 20%

Form field Percent inhibition of proliferation HeLa, entry CCN(CC)CC(O)CNC(=O)c1ccc(C)c(C#Cc2c(N)ncc3ccc(Cl)cc23)c1 (stereo not drawn) [HSN185] : 99%

Form field Percent inhibition of proliferation HeLa, entry CN(C)CCCNC(=O)c1cccc(C#Cc2c(N)ncc3ccc(Cl)cc23)c1 [HSM1688] : 64%

Form field Percent inhibition of proliferation HeLa, entry Nc1ncc2ccc(Cl)cc2c1C#Cc1cccc(C(=O)NCC(O)CN2CCCC2)c1 (stereo not drawn) [HSM1751] : 23%

Form field Percent inhibition of proliferation HeLa, entry CN(CCCN1CCCCC1)C(=O)c1ccc(C#Cc2c(N)ncc3ccc(Cl)cc23)cc1 [HSN105] : 1%

Form field Percent inhibition of proliferation HeLa, entry CCN(CC)CC(O)CNC(=O)c1cccc(C#Cc2c(N)ncc3ccc(Cl)cc23)c1 (stereo not drawn) [HSN189] : 18%

Form field Percent inhibition of proliferation HeLa, entry Cc1ccc(C(=O)NCC(O)CN(C)C)cc1C#Cc1c(N)ncc2ccc(Cl)cc12 (stereo not drawn) [HSN178] : 100%

Form field Percent inhibition of proliferation HeLa, entry CN(C)CC(O)CNC(=O)c1cccc(C#Cc2c(N)ncc3ccc(Cl)cc23)c1 (stereo not drawn) [HSN161] : 70%

Form field Percent inhibition of proliferation HeLa, entry Nc1ncc2ccc(Cl)cc2c1C#Cc1cccc(C(=O)N2CCC(N)CC2)c1.O=C(O)C(F)(F)F [HSN174] : 10%

Form field Percent inhibition of proliferation HeLa, entry Nc1ncc2ccc(Cl)cc2c1C#Cc1ccc(C(=O)NCCCN2CCCCC2)cc1 [HSM1683] : 49%

Form field Percent inhibition of proliferation HeLa, entry Nc1ncc2ccc(Cl)cc2c1C#Cc1ccccc1C(=O)NCCCN1CCCCC1 [HSM1717] : 2%

Form field Percent inhibition of proliferation HeLa, entry CN(C)CC(O)CNC(=O)c1ccc(C#Cc2c(N)ncc3ccc(Cl)cc23)cc1 (stereo not drawn) [HSM1702] : 17%

Form field Percent inhibition of proliferation HeLa, entry CN(C)CCOc1ccc(CNC(=O)c2ccc(C#Cc3c(N)ncc4ccc(Cl)cc34)cc2)cc1 [HSN99] : 6%

Form field Percent inhibition of proliferation HeLa, entry CN1CCN(Cc2ccc(NC(=O)c3ccc(C#Cc4c(N)ncc5ccc(Cl)cc45)cc3)cc2)CC1 [HSM1661] : 1%
